Recorded measurements of EC50, one per entry
tested on: chimeric RARβ receptor protein; assay: Cationic Liposome Mediated Transfection Assay, RARβ; type: cell-based; settings: Table 1; 50% of maximum CAT activity of all-trans retinoic acid; HeLa cells
Give the value in nM but do not write nM after it.

C/C(=C\c1cc(C(=O)O)cs1)c1cc2c(cc1C)C(C)(C)CCC2(C)C	3350
C/C(=C\c1ccc(C(=O)O)s1)c1cc2c(cc1C)C(C)(C)CCC2(C)C	23

Turning to the following compound.
Query: Requested read-out: EC50. Entry: C/C(=C\c1ccc(C(=O)O)cc1)c1cc2c(cc1C)C(C)(C)CCC2(C)C [Compound 2, reference compound]
Reply: 101

---

Test system: chimeric RARγ receptor protein
Test: Cationic Liposome Mediated Transfection Assay, RARγ
Type: cell-based
Details: Table 1; 50% of maximum CAT activity of all-trans retinoic acid; HeLa cells
Procedure: The above-mentioned Cationic Liposome Mediated Transfection Assay assay by which the activity of a test compound as a potential agonist of the RXR and RAR receptor sites is determined, is performed substantially as reported by Feigner P. L. and Holm M. (1989) Focus, 11-2, and is described below first in principle and thereafter in the form of specific instructions how to perform the assay. […]
Reported Metric: pEC50
pEC50 here is simply -log10 of the concentration when that concentration is written in mol/L.

Illustrative cases are given below, each with its answer.
C/C(=C\c1cc(C(=O)O)cs1)c1cc2c(cc1C)C(C)(C)CCC2(C)C	5.97
C/C(=C\c1ccc(C(=O)O)cc1)c1cc2c(cc1C)C(C)(C)CCC2(C)C [Compound 2, reference compound]	6.44

Turning to the following compound.
Query: Requested read-out: pEC50. Entry: `C/C(=C\c1ccc(C(=O)O)s1)c1cc2c(cc1C)C(C)(C)CCC2(C)C`
Reply: 6.82
